Source listed as PubChem BioAssay (NCI).

test system: DU-145 prostate; assay: NCI tumour cell line growth inhibition, 48 h
Where a SMILES comes first, the peptide text is derived from it. The star is where a group is joined. Boc = CC(C)(C)OC(=O)*; OBn = c1ccc(CO*)cc1; Bn = c1ccc(C*)cc1
assay metric: TGI

Task: Any idea what its TGI is? The molecule is CO/N=C1/c2cc(OC)ccc2-c2c(NOC)nc3ccccc3c21
Output: > 100 µM

Task: Any idea what its TGI is? The molecule is COc1ccc(N=NN2CCCC2)cc1
Output: > 100 µM

Task: Any idea what its TGI is? The molecule is CC1=C(C)C(=O)C(C(C)C2=C(C)C(=O)C(C)=C(C)C2=O)=C(C)C1=O
Output: > 100 µM

Task: Any idea what its TGI is? The molecule is COc1ccc2c(CNCCCCO)cc3cc4c(cc3c2c1)OCO4
Output: 7.09 µM

Task: Any idea what its TGI is? The molecule is C(=N\NC1=NCCCN1)/c1ccc(-c2cn3cc(/C=N/NC4=NCCCN4)ccc3n2)cc1
Output: > 100 µM

Task: Any idea what its TGI is? The molecule is COC(=O)c1c(-c2ccccc2)csc1NC(=O)c1c(-c2ccccc2)noc1C
Output: > 100 µM

Task: Any idea what its TGI is? The molecule is CC1OC(OC2C(CO)OC(O[C@H]3CC[C@@]4(C)C(=CC[C@H]5[C@@H]6C[C@@H]7O[C@](O)(CC[C@@H](C)COC8OC(CO)C(O)C(O)C8O)[C@@H](C)[C@@H]7[C@@]6(C)CC[C@@H]54)C3)C(OC3OC(C)C(O)C(O)C3O)C2O)C(O)C(O)C1O (stereo partly specified)
Output: 4.97 µM

Task: Any idea what its TGI is? The molecule is CC(C)=NN/C(=N\S(=O)(=O)c1cc(Cl)c(Oc2ccc([N+](=O)[O-])cc2Cl)c(Cl)c1)Nc1ccc(Cl)cc1
Output: > 100 µM

Task: Any idea what its TGI is? The molecule is COc1ccc2c(c1)CC[C@@H]1C2CC[C@]2(C)OC(=O)CCC12 (stereo partly specified)
Output: > 100 µM

Task: Any idea what its TGI is? The molecule is O=Cc1ccc(C(F)(F)F)cc1.[C-]#[O+].[C-]#[O+].[C-]#[O+].[Cr]
Output: 94.9 µM

Task: Any idea what its TGI is? The molecule is CC(O)CN(CCN(CC(C)O)CC(C)O)CC(C)O.O=[N+]([O-])O.[Cu+2] (stereo unspecified)
Output: > 100 µM

Task: Any idea what its TGI is? The molecule is Nc1nc(Cl)cc(NCC2(CO)CC(CCCCc3ccccc3)C2)n1 (stereo unspecified)
Output: > 100 µM

Task: Any idea what its TGI is? The molecule is CC(C)CC(NC(=O)C(Cc1ccccc1)NC(=O)C(COCc1ccccc1)NC(=O)OC(C)(C)C)C(=O)OCc1ccccc1 (stereo not drawn) (Boc-Ser(Bn)-Phe-Leu-OBn; configuration not given here)
Output: 25.2 µM

Task: Any idea what its TGI is? The molecule is CC(C)(C)[Si](C)(C)OCC1OC(n2ccc(=O)[nH]c2=O)C(O[Si](C)(C)C(C)(C)C)/C1=N/O (stereo unspecified)
Output: 28.5 µM

Task: Any idea what its TGI is? The molecule is CCCCc1ccc(N2C(=O)c3cc(C)cnc3S2(=O)=O)cc1
Output: > 100 µM

Task: Any idea what its TGI is? The molecule is CC(=O)OCc1ccc(-c2nc(C#N)c(N)o2)o1
Output: > 10 µM

----------
system: MDA-N; experiment: NCI tumour cell line growth inhibition, 48 h
For each entry below, report its TGI value.

Task: Any idea what its TGI is? The compound is c1ccc(COc2nc3ccc(C45CC6CC(CC(C6)C4)C5)cc3[nH]2)cc1
Output: 97 µM

Task: Any idea what its TGI is? The compound is CC(=O)OCc1ccc(-c2nc(C#N)c(N)o2)o1
Output: > 10 µM

Task: Any idea what its TGI is? The compound is CC1CCN(c2nnc(Cl)cc2C(=O)c2ccccc2)CC1
Output: 53.2 µM

Task: Any idea what its TGI is? The compound is O=C(CC1C(=O)Nc2ccccc2S1=O)Nc1cccc(Cl)c1 (stereo not given)
Output: 56.1 µM

Task: Any idea what its TGI is? The compound is C=C(C)C1CC2=C(C(=O)OC)C=C(O2)C(C(=C)C)[C@@H]2OC(=O)/C(=C\C1O)[C@H]2N(C)C (stereo not given in full)
Output: 25.8 µM

----------
For each entry below, report its TGI value.
system: RXF 393 renal; test: NCI tumour cell line growth inhibition, 48 h
Where a SMILES comes first, the peptide text is derived from it. [ ]: non-standard residue; d: D form. The star is where a group is joined. ξ: configuration not given here. X37 = O=C(OCc1ccccc1)[C@@H]1CCC[C@H]1N*; Fmoc = O=C(OCC1c2ccccc2-c2ccccc21)*; ξW = NC(Cc1c[nH]c2ccccc12)C(=O)O; ξF = NC(Cc1ccccc1)C(=O)O; Boc = CC(C)(C)OC(=O)*; ξK = NCCCCC(N)C(=O)O; ξT = CC(O)C(N)C(=O)O; tBu = CC(C)(C)*

Task: Any idea what its TGI is? The compound is COC(=O)C1Cc2c([nH]c3ccccc23)C=N1 (stereo not drawn)
Output: > 100 µM

Task: Any idea what its TGI is? The compound is COC(=O)c1oc2c(C(=O)/C=C/c3ccc(OC)cc3)c(OCCCN3CCCCC3)ccc2c1C
Output: 0.487 µM

Task: Any idea what its TGI is? The compound is COc1ccc2cc(C(=O)NCCc3ccccc3)ccc2c1OC
Output: 70.7 µM

Task: Any idea what its TGI is? The compound is O=C1C(c2ccccc2)=C(c2ccccc2)C(c2ccccc2)/C1=C1\C(=O)C(c2ccccc2)=C(c2ccccc2)C1c1ccccc1 (stereo not drawn)
Output: > 100 µM

Task: Any idea what its TGI is? The compound is C[Si](C)(C)C#C[I+]c1ccccc1
Output: > 100 µM

Task: Any idea what its TGI is? The compound is NCCOc1ccccn1
Output: > 100 µM

Task: Any idea what its TGI is? The compound is NC(=O)NC(=O)CI
Output: 18.3 µM

Task: Any idea what its TGI is? The compound is COc1ccc(OC)c2c1C[C@@H]1C(C#N)N3[C@H](Cc4c(OC)ccc(OC)c4[C@@H]3C)C(=O)N1[C@H]2C (stereo partly drawn)
Output: 3.44 µM

Task: Any idea what its TGI is? The compound is CCOC(=O)Cc1csc(/N=C\c2c(O)c3ccccc3oc2=O)n1
Output: > 100 µM

Task: Any idea what its TGI is? The compound is Cn1c(=O)c(Cc2ccc(F)cc2F)cc2cnc(NC3CCOCC3)nc21
Output: > 25 µM

Task: Any idea what its TGI is? The compound is C[Si](C)(C)/C(Br)=C\CCN1C(=O)CCC1O (stereo not drawn)
Output: > 100 µM

Task: Any idea what its TGI is? The compound is Cc1ccccc1NC(=O)c1[nH]c(=S)nc(N)c1-c1ccccc1C
Output: > 100 µM

Task: Any idea what its TGI is? The compound is C=C(C)C1CC2=C(C(=O)OC)C=C(O2)C(C(=C)C)[C@@H]2OC(=O)/C(=C\C1O)[C@H]2N(C)C (stereo partly drawn)
Output: 15.7 µM

Task: Any idea what its TGI is? The compound is CC(=O)O[C@H]1C(=O)[C@]2(C)[C@@H](OC(=O)OCC(O)CO)C[C@H]3OC[C@@]3(OC(C)=O)[C@H]2[C@H](OC(=O)c2ccccc2)[C@]2(O)C[C@H](OC(=O)[C@H](O)[C@@H](NC(=O)c3ccccc3)c3ccccc3)C(C)=C1C2(C)C (stereo partly drawn)
Output: 1.04 µM

Task: Any idea what its TGI is? The compound is C=C1C(=O)O[C@H]2[C@H]1CC/C(Cn1cc(CCC)nn1)=C\CC[C@@]1(C)O[C@@H]21
Output: 16.5 µM

Task: Any idea what its TGI is? The compound is C=C1C(=O)OC2C(C)C3C=CC(=O)[C@@]3(C)C(OC(=O)/C(C)=C/C)C1[C@@H]2OC(C)=O (stereo partly drawn)
Output: 0.61 µM

Task: Any idea what its TGI is? The compound is CC1SC(c2cccs2)N(NC(=O)C(O)c2ccccc2)C1=O (stereo not drawn)
Output: > 100 µM

Task: Any idea what its TGI is? The compound is CC(=O)OCCOCNC(=S)N/N=C(\C)c1ccco1
Output: > 100 µM

Task: Any idea what its TGI is? The compound is CC(OC(C)(C)C)C(NC(=O)C(CCCCNC(=O)OC(C)(C)C)NC(=O)C(Cc1c[nH]c2ccccc12)NC(=O)C(Cc1ccccc1)NC(=O)OCC1c2ccccc2-c2ccccc21)C(=O)NC(Cc1ccccc1)C(=O)N[C@@H]1CCC[C@H]1C(=O)OCc1ccccc1 (stereo partly drawn) (Fmoc-[ξF][ξW][ξK](Boc)[ξT](tBu)[ξF]-X37)
Output: > 100 µM

Task: Any idea what its TGI is? The compound is CC(CN(CP(=O)([O-])[O-])CP(=O)([O-])[O-])N(CP(=O)([O-])[O-])CP(=O)([O-])[O-].N[C@@H]1CCCC[C@@H]1N.[Pt+2] (stereo not drawn)
Output: > 100 µM

Task: Any idea what its TGI is? The compound is CC(C)(C)CC(C)(C)Cc1ccc(OCCOCC[N+](C)(C)Cc2ccccc2)cc1
Output: 3 µM

Task: Any idea what its TGI is? The compound is C[C@H](NC(=O)OC1C2C=CC(O)C1CC2)c1ccccc1 (stereo partly drawn)
Output: > 100 µM

Task: Any idea what its TGI is? The compound is O=C1NC(=NCCc2ccccc2Cl)S/C1=C\c1ccc2ncccc2c1
Output: > 25 µM
